Target: Solute carrier organic anion transporter family member 2A1 (Rattus norvegicus)
Assay: TP_TRANSPORTER: inhibition of PGE2 uptake in PGT-expressing HeLa cells
Assay metric: Ki (nM)

CCCCC[C@H](O)/C=C/[C@@H]1[C@@H](C/C=C\CCCC(=O)O)[C@@H]2C[C@H]1OO2 : 38.2

P: CCCCC[C@H](O)/C=C/[C@H]1C(=O)C[C@H](O)[C@@H]1CCCCCCC(=O)O [PROSTAGLANDIN D1]
Q: CCCCC[C@H](O)/C=C/[C@H]1C=CC(=O)[C@@H]1CCCCCCC(=O)O
R: CCCCC[C@H](O)/C=C/C1=C(CCCCCCC(=O)O)C(=O)CC1
Task: Please give the order of these molecules when sorted by Ki, largest value leading. Answer format: list of labels, ordered as asked.
Result: Q, P, R
